Reported inhibition of aggregation values are given for each entry in this list.
- experimental_protocol: inhibitors of mutant huntingtin aggregation, primary screen, imaging, exon1htt(103Q)mCFP cells, high-content imaging (AID 483);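 note: compound exposure lasted 3 days before fixation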
- test_conditions: exon1htt(103Q)mCFP cell line, aggregate imaging, at 2 µM; active compounds read high

molecule	inhibition of aggregation / %
CCCN(CC1CC1)C(=O)Nc1ccccc1C	9.8
COc1cc(OC)c(NC(=O)c2ccco2)cc1Cl	12.2
Nc1cc(-c2ccc(Br)cc2)nn1S(=O)(=O)c1ccccc1	-1
COc1cc(S(=O)(=O)n2nnc3ccccc32)c(OC)cc1Cl	-68.5
CCN(CC)CCN1C(=O)C(O)=C(C(=O)c2cccs2)C1c1ccc(C)o1 (stereo not drawn)	-10.4
Oc1c(C(c2ccccc2)N2CCc3ccccc3C2)sc2ncnn12 (stereo not drawn)	-23.6
COc1ccc(-c2ccc(-c3noc(-c4ccccc4)n3)c(OC)n2)cc1	-12.7
CC(=O)OCC1OC(c2ccccc2)C(OC(C)=O)C(OC(C)=O)C1OC(C)=O (stereo not drawn)	15.4
C=Cn1nc(C)c2ccccc2c1=O	16.4
CCOc1ccc(NC(=O)c2ccc3c(c2)N(Cc2ccc(F)cc2)C(=O)CS3=O)cc1 (stereo not drawn)	-4.8
CCC1CCCCN1CCCNC(=O)CC1Oc2ccc(C)cc2NC1=O (stereo not drawn)	13.7
COC(=O)c1ccccc1NC(=O)COc1ccc(S(=O)(=O)N2CCCC2)cc1C	10.3
CC1CCc2c(sc(N)c2C(N)=O)C1 (stereo not drawn)	6.1
O=C(CN(C(=O)CCC(=O)Nc1nccs1)c1ccccc1F)NCC1CCCO1 (stereo not drawn)	6
O=C(NCCC1=CCCCC1)C1CCN(C(=O)Nc2ccccc2)CC1	-13.3
O=C1C2CC=CCC2C(=O)N1c1ccc(Cc2ccncc2)cc1 (stereo not drawn)	-8.1
O=C1OCc2cc(NC(=O)C3CCCO3)ccc21 (stereo not drawn)	13.1
CCOc1ccccc1NC(=O)CCSc1nc2n[nH]c(C)c2c(=N)n1-c1ccccc1Cl	-22.3
COc1ccc(-c2nc(CSCC(=O)N3CCc4ccccc4C3)c(C)o2)cc1OC	-5.2
O=C(NCC1CCCO1)c1ccc(C(=O)NCC2CCCO2)cc1 (stereo not drawn)	-3.7
O=C(c1cc2ccccc2oc1=O)N1CCN(c2ccc(N3CCOCC3)nn2)CC1	0.1
Cc1ccc(-c2nc(CS(=O)CC(=O)NCCN(CC(C)C)CC(C)C)c(C)o2)cc1 (stereo not drawn)	21.6
COC(=O)c1cc(OC)c(OC)cc1NC(=O)c1ccc(Br)o1	-7.5

----------
Below is a list of entries, each paired with its recorded slope value.
- target_desc: Alpha-2C adrenergic receptor (Homo sapiens)
- experimental_protocol: modulators of alpha2C/GIRK thallium flux, primary screen, cell-based, HEK293 alpha2C/GIRK1/2 (AID 624);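 note: slope of fluorescence ratio to pre-addition baseline per second over 15 to 24 s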
- test_conditions: thallium flux BTC fluorescence, at 10 µM, actives lie on both sides
assay_readout: slope

molecule	target_desc	readout_value
COc1ccccc1CNS(=O)(=O)c1ccc(NC(C)=O)cc1	Alpha-2C adrenergic receptor (Homo sapiens)	0.00719
CCOc1ccc(C2CC(=O)NC3=C2C(=O)CCC3)cc1Cl (configuration not stated)	Alpha-2C adrenergic receptor (Homo sapiens)	0.00268
c1cn(CC2(Cn3ccnc3)COC2)cn1	Alpha-2C adrenergic receptor (Homo sapiens)	0.00589
O=C(NCC1CCCO1)C1CCCN(Cc2cnn(-c3ccccc3)c2-n2cccc2)C1 (configuration not stated)	Alpha-2C adrenergic receptor (Homo sapiens)	0.0039
N#Cc1nc(-c2ccccc2Cl)oc1N1CCOCC1	Alpha-2C adrenergic receptor (Homo sapiens)	0.00468
NC(=O)NC(c1ccccc1)c1ccccc1F (configuration not stated)	Alpha-2C adrenergic receptor (Homo sapiens)	0.00595
O=C(O)CC(NC(=O)c1ccccc1NC(=O)c1ccccc1)C(=O)O (configuration not stated)	Alpha-2C adrenergic receptor (Homo sapiens)	0.00592
COc1ccc(-c2nnc(SCC(=O)NC(=O)NCc3ccco3)o2)cc1	Alpha-2C adrenergic receptor (Homo sapiens)	0.00577
Cc1cccc(-n2ncc3c(NCc4cccnc4)ncnc32)c1	Alpha-2C adrenergic receptor (Homo sapiens)	0.00696
C=CCNS(=O)(=O)c1ccc2nsnc2c1	Alpha-2C adrenergic receptor (Homo sapiens)	0.0046
CN(C)c1ccc(-c2nn3c(-c4ccc(Cl)cc4Cl)nnc3s2)cc1	Alpha-2C adrenergic receptor (Homo sapiens)	0.00528
CNC(=O)c1ccc(N(Cc2ccccc2C)S(C)(=O)=O)cc1	Alpha-2C adrenergic receptor (Homo sapiens)	0.00383
CCC1(C)Cc2c(C#N)c(N)n(N)c(=S)c2CO1 (configuration not stated)	Alpha-2C adrenergic receptor (Homo sapiens)	0.00514
CCn1c2ccccc2c2cc(Nc3cc(C)nc4ncnn34)ccc21	Alpha-2C adrenergic receptor (Homo sapiens)	0.00558
CCOC(=O)Cn1c(CN(C)Cc2ccccc2)nc2c1c(=O)n(C)c(=O)n2C	Alpha-2C adrenergic receptor (Homo sapiens)	0.00521
O=C(NCc1ccco1)c1cc2cc3ccc(Cl)cc3nc2o1	Alpha-2C adrenergic receptor (Homo sapiens)	0.00854
CCOC(=O)C1=C(C)Nc2nnnn2C1c1c[nH]c2ccccc12 (configuration not stated)	Alpha-2C adrenergic receptor (Homo sapiens)	0.00469
NC(=O)C(Cc1ccccc1)NS(=O)(=O)c1ccc(N2CCCC2=O)cc1 (configuration not stated)	Alpha-2C adrenergic receptor (Homo sapiens)	0.00321
CCC1Oc2ccc(C)cc2N(CC(=O)NCCCN2CCCCC2CC)C1=O (configuration not stated)	Alpha-2C adrenergic receptor (Homo sapiens)	0.0055
O=C(CSc1nnnn1-c1ccccc1Cl)Nc1ccc2c(c1)OCCO2	Alpha-2C adrenergic receptor (Homo sapiens)	0.00706
COc1cc2c(cc1OC)-c1nnc(-c3cccs3)n1C(C)(C)C2	Alpha-2C adrenergic receptor (Homo sapiens)	0.00581
O=C(NCc1ccco1)c1cccn2c(=O)c3sccc3nc12	Alpha-2C adrenergic receptor (Homo sapiens)	0.00303
Cc1ccc(-c2nn(-c3ccccc3)cc2CN(Cc2ccccc2)C(=O)CCC(=O)O)o1	Alpha-2C adrenergic receptor (Homo sapiens)	0.00807
CCOc1ccccc1C(=O)NC(C)c1ccc2c(c1)OCO2 (configuration not stated)	Alpha-2C adrenergic receptor (Homo sapiens)	0.00595
COC(=O)CCCCCc1ccc(C(C)=O)s1	Alpha-2C adrenergic receptor (Homo sapiens)	0.00508
C=CCOc1ccc(C2/C(=C(\O)c3c(C)[nH]c(C(=O)OC)c3C)C(=O)C(=O)N2CCN(C)C)cc1 (configuration not stated)	Alpha-2C adrenergic receptor (Homo sapiens)	0.00355
CC1=C(C(=O)OCC(C)C)C(c2cc3c(cc2Br)OCO3)NC(=O)N1C (configuration not stated)	Alpha-2C adrenergic receptor (Homo sapiens)	0.00323
CCN(CC)S(=O)(=O)c1ccc(NC(=O)Cn2cnc3ccccc3c2=O)cc1	Alpha-2C adrenergic receptor (Homo sapiens)	0.0039
O=C(NCCc1c[nH]c2ccccc12)c1cnc2n(c1=O)CCS2	Alpha-2C adrenergic receptor (Homo sapiens)	0.00796
COc1ccc(-c2nc(C#N)c(N3CCN(c4ccccc4)CC3)o2)cc1	Alpha-2C adrenergic receptor (Homo sapiens)	0.00659
Cc1cc(C)c(C(=O)CSc2nnc(-c3ccccc3Br)o2)cc1C	Alpha-2C adrenergic receptor (Homo sapiens)	0.00604
O=c1oc2c3c4c(cc2s1)CCCN4CCC3	Alpha-2C adrenergic receptor (Homo sapiens)	0.00368
COC(=O)CSc1nc2nc(C)cc(C)n2n1	Alpha-2C adrenergic receptor (Homo sapiens)	0.00719
COCCSc1ccccc1C(=O)Nc1nncs1	Alpha-2C adrenergic receptor (Homo sapiens)	0.00672
COC(=O)c1ccc(-n2nnnc2SCc2nn[nH]n2)cc1	Alpha-2C adrenergic receptor (Homo sapiens)	0.00668
COc1cc(-c2noc(-c3ccccc3C(=O)NCc3ccco3)n2)cc(OC)c1OC	Alpha-2C adrenergic receptor (Homo sapiens)	0.00612
COc1ccc(Cn2nnnc2CN2CCOCC2)cc1	Alpha-2C adrenergic receptor (Homo sapiens)	0.00479
CCCn1cc(C(CC(=O)O)C(=O)O)c2ccccc21 (configuration not stated)	Alpha-2C adrenergic receptor (Homo sapiens)	0.00576
CCOC(=O)CSc1nnc([C@H](CC(C)C)NC(=O)OC(C)(C)C)o1	Alpha-2C adrenergic receptor (Homo sapiens)	0.0048
CCN(CC)CCn1c(OC)cc(=O)[nH]c1=O	Alpha-2C adrenergic receptor (Homo sapiens)	0.00433
Cc1cc(C)cc(C(=O)N2CCC(C(N)=O)CC2)c1	Alpha-2C adrenergic receptor (Homo sapiens)	0.00604
CCC1(C(=O)OC)NC(c2cccc(F)c2)C2C(=O)N(C)C(=O)C21 (configuration not stated)	Alpha-2C adrenergic receptor (Homo sapiens)	0.00554
CC(=O)N1CCC(N(C(=O)Nc2ccc(C)c(C)c2)C2CCCC2)CC1	Alpha-2C adrenergic receptor (Homo sapiens)	0.0055
NC(=O)COC(=O)c1ccc(S(=O)(=O)N2CCCCCC2)cc1	Alpha-2C adrenergic receptor (Homo sapiens)	0.00701
O=c1c[n+]([O-])c2ccccc2n1OCc1c(F)cccc1F	Alpha-2C adrenergic receptor (Homo sapiens)	0.00594
Nn1c(SCC(=O)NC2CCCCC2)nnc1C1CC1	Alpha-2C adrenergic receptor (Homo sapiens)	0.00622
CCOCCCNC(=O)CC1Oc2ccc(C)cc2NC1=O (configuration not stated)	Alpha-2C adrenergic receptor (Homo sapiens)	0.00596
